Test system: HepG2 cell line
assay_procedure: In vitro cell proliferation assay (MTT), HepG2
Assay type: cell-based
test_context: Homo sapiens, HepG2, 72 h; read-out: EC50, anti-proliferative activity
This section presents compounds with their documented EC50 values.

CC(=O)c1cc2cc(NCc3cc(NC(=O)c4ccc(C)c(C(F)(F)F)c4)ccc3C)cnc2[nH]1 ... 100 to 1000 nM
CC(=O)c1cc2cc(NCc3cc(NC(=O)Cc4cccc(C(F)(F)F)c4)ccc3C)cnc2[nH]1 ... 100 to 1000 nM
CC(=O)c1cc2cc(NCc3cccc(NC(=O)c4ccc(CN5CC[C@H](N(C)C)C5)c(C(F)(F)F)c4)c3)cnc2[nH]1 ... 100 to 1000 nM
CC(=O)c1cc2cc(NCc3cc(NC(=O)c4ccc(CN5CCN(C)CC5)c(C(F)(F)F)c4)ccc3C)cnc2[nH]1 ... ≤ 100 nM
CC(=O)c1cc2cc(NCc3cc(NC(=O)c4cncc(C(F)(F)F)c4)ccc3F)cnc2[nH]1 ... 100 to 1000 nM
CC(=O)c1cc2cc(NCc3cc(NC(=O)c4cncc(C(F)(F)F)c4)ccc3C)cnc2[nH]1 ... ≤ 100 nM
CC(=O)c1cc2cc(NCc3cc(NC(=O)c4ccc(CN5CCC(N(C)C)C5)c(F)c4)ccc3C)cnc2[nH]1 (stereo not shown) ... 100 to 1000 nM
CC(=O)c1cc2cc(NCc3cc(NC(=O)c4ccc5[nH]ccc5c4)ccc3C)cnc2[nH]1 ... 100 to 1000 nM
CC(=O)c1cc2cc(NCc3cc(NC(=O)c4ccc(CN5CC[C@H](N(C)C)C5)c(C(F)(F)F)c4)ccc3F)cnc2[nH]1 ... 100 to 1000 nM
CC(=O)c1cc2cc(NCc3cc(NC(=O)Nc4cccc(C(F)(F)F)c4)ccc3C)cnc2[nH]1 ... 100 to 1000 nM

Simply: CC(=O)c1cc2cc(NCc3cc(NC(=O)c4cc(N5CCN(C)CC5)cc(C(F)(F)F)c4)ccc3F)cnc2[nH]1 , HepG2 cell line, EC50 = ≤ 100 nM

Simply: CC(=O)c1cc2cc(NCc3cccc(NC(=O)c4cncc(C(F)(F)F)c4)c3)cnc2[nH]1 , HepG2 cell line, EC50 = 100 to 1000 nM

Simply: CNC(=O)c1cc2cc(NCc3cc(NC(=O)c4ccc(CN5CC[C@H](N(C)C)C5)c(C(F)(F)F)c4)ccc3C)cnc2[nH]1 , HepG2 cell line, EC50 = ≤ 100 nM

Simply: CC(=O)c1cc2cc(NC(=O)c3cc(NC(=O)Nc4cccc(C(F)(F)F)c4)ccc3C)cnc2[nH]1 , HepG2 cell line, EC50 = ≤ 100 nM

Simply: CCCCCCNC(=O)c1cc2cc(NCc3cc(NC(=O)c4ccc(CN5CCN(C)CC5)c(C(F)(F)F)c4)ccc3C)cnc2[nH]1 , HepG2 cell line, EC50 = 100 to 1000 nM

Simply: CC(=O)c1cc2cc(NCc3cc(NC(=S)Nc4cccc(C(F)(F)F)c4)ccc3C)cnc2[nH]1 , HepG2 cell line, EC50 = 100 to 1000 nM

Simply: CC(=O)c1cc2cc(NCc3cc(NC(=O)c4ccc(CN5CCN(C)CC5)c(C(F)(F)F)c4)ccc3F)cnc2[nH]1 , HepG2 cell line, EC50 = ≤ 100 nM

Simply: CC(=O)c1cc2cc(NCc3cc(NC(=O)Nc4cccnc4)ccc3C)cnc2[nH]1 , HepG2 cell line, EC50 = ≤ 100 nM

Simply: CC(=O)c1cc2cc(NCc3cc(NC(=O)c4cccc(C(F)(F)F)c4)ccc3C)cnc2[nH]1 , HepG2 cell line, EC50 = ≤ 100 nM

Simply: CNC(=O)c1cc2cc(NCc3cc(NC(=O)c4ccc(CN5CCN(C)CC5)c(C(F)(F)F)c4)ccc3C)cnc2[nH]1 , HepG2 cell line, EC50 = ≤ 100 nM

Simply: CC(=O)c1cc2cc(NCc3cc(NC(=O)c4ccc(CN5CCN(C)CC5)c(F)c4)ccc3C)cnc2[nH]1 , HepG2 cell line, EC50 = 100 to 1000 nM

Simply: CC(=O)c1cc2cc(NCc3cc(NC(=O)c4ccc(Cl)c(C(F)(F)F)c4)ccc3C)cnc2[nH]1 , HepG2 cell line, EC50 = 100 to 1000 nM
